# Test system: NOMO1
# Assay name: cell viability relative to DMSO control; higher = less cytotoxic
# Condition notes: HPLM + 10% dialyzed FBS; 48 h; 0.0211 µM
Each item that follows carries a reported cell viability.
Give just the number in %; leave the unit off.

Some solved cases for reference:
# Molecule, Test target, cell viability / %
rows = [
    ("CC1CCC(C(=O)N(c2cc(C#CC(C)(C)C)sc2C(=O)O)C2CCC(O)CC2)CC1 (stereo not drawn)", "NOMO1", 113),
    ("[NH2][Pt]1([NH2])[O]CC(=O)[O]1", "NOMO1", 101),
]

Switching to the query record.
Task item: Could you share what cell viability was measured for CCc1cncnc1N1CCN(Cc2nc3cc(C(F)(F)F)ccc3[nH]2)CC1 , tested on NOMO1?
Reply: 98.5
